test system: Mycobacterium tuberculosis Erdman (autoluminescent); experiment: Einf, fitted maximum growth inhibition of three-drug combination (fraction); higher = stronger maximal inhibition; details: in vitro model: standard 7H9 glycerol; time point: constant = terminal
readout_name: Einf

{"compound": "CC(C)/N=c1\\cc2n(-c3ccc(Cl)cc3)c3ccccc3nc-2cc1Nc1ccc(Cl)cc1 [clofazimine] + NNC(=O)c1ccncc1 [isoniazid] + CO[C@H]1/C=C/O[C@@]2(C)Oc3c(C)c(O)c4c(O)c(c(/C=N/N5CCN(C)CC5)c(O)c4c3C2=O)NC(=O)/C(C)=C\\C=C\\[C@H](C)[C@H](O)[C@@H](C)[C@@H](O)[C@@H](C)[C@H](OC(C)=O)[C@@H]1C [rifampicin]", "readout_name": "Einf", "result_value": 0.945}
{"compound": "CC[C@@H](CO)NCCN[C@@H](CC)CO [ethambutol] + CC(=O)NC[C@H]1CN(c2ccc(N3CCOCC3)c(F)c2)C(=O)O1 [linezolid] + COc1c(N2C[C@@H]3CCCN[C@@H]3C2)c(F)cc2c(=O)c(C(=O)O)cn(C3CC3)c12 [moxifloxacin]", "readout_name": "Einf", "result_value": 0.958}
{"compound": "CC(=O)NC[C@H]1CN(c2ccc(N3CCOCC3)c(F)c2)C(=O)O1 [linezolid] + COc1c(N2C[C@@H]3CCCN[C@@H]3C2)c(F)cc2c(=O)c(C(=O)O)cn(C3CC3)c12 [moxifloxacin] + CO[C@H]1/C=C/O[C@@]2(C)Oc3c(C)c(O)c4c(O)c(c(/C=N/N5CCN(C)CC5)c(O)c4c3C2=O)NC(=O)/C(C)=C\\C=C\\[C@H](C)[C@H](O)[C@@H](C)[C@@H](O)[C@@H](C)[C@H](OC(C)=O)[C@@H]1C [rifampicin]", "readout_name": "Einf", "result_value": 0.839}

###

Listed here are molecules together with their documented Einf.
test system: Mycobacterium tuberculosis Erdman (autoluminescent); experiment: Einf, fitted maximum growth inhibition of three-drug combination (fraction); higher = stronger maximal inhibition; settings: in vitro model: butyrate; time point: terminal (~4-5 doublings, model-specific)
readout_name: Einf

{"molecule": "COc1nc2ccc(Br)cc2cc1[C@@H](c1ccccc1)[C@@](O)(CCN(C)C)c1cccc2ccccc12 [bedaquiline] + NNC(=O)c1ccncc1 [isoniazid] + CO[C@H]1/C=C/O[C@@]2(C)Oc3c(C)c(O)c4c(O)c(c(/C=N/N5CCN(C6CCCC6)CC5)c(O)c4c3C2=O)NC(=O)/C(C)=C\\C=C\\[C@H](C)[C@H](O)[C@@H](C)[C@@H](O)[C@@H](C)[C@H](OC(C)=O)[C@@H]1C [rifapentine]", "readout_name": "Einf", "result_value": 0.969}
{"molecule": "CC(C)/N=c1\\cc2n(-c3ccc(Cl)cc3)c3ccccc3nc-2cc1Nc1ccc(Cl)cc1 [clofazimine] + NNC(=O)c1ccncc1 [isoniazid] + O=[N+]([O-])c1cn2c(n1)OC[C@@H](OCc1ccc(OC(F)(F)F)cc1)C2 [pretomanid]", "readout_name": "Einf", "result_value": 0.989}
{"molecule": "COc1nc2ccc(Br)cc2cc1[C@@H](c1ccccc1)[C@@](O)(CCN(C)C)c1cccc2ccccc12 [bedaquiline] + CC(C)/N=c1\\cc2n(-c3ccc(Cl)cc3)c3ccccc3nc-2cc1Nc1ccc(Cl)cc1 [clofazimine] + CC[C@@H](CO)NCCN[C@@H](CC)CO [ethambutol]", "readout_name": "Einf", "result_value": 0.976}
{"molecule": "COc1nc2ccc(Br)cc2cc1[C@@H](c1ccccc1)[C@@](O)(CCN(C)C)c1cccc2ccccc12 [bedaquiline] + NC(=O)c1cnccn1 [pyrazinamide] + CO[C@H]1/C=C/O[C@@]2(C)Oc3c(C)c(O)c4c(O)c(c(/C=N/N5CCN(C6CCCC6)CC5)c(O)c4c3C2=O)NC(=O)/C(C)=C\\C=C\\[C@H](C)[C@H](O)[C@@H](C)[C@@H](O)[C@@H](C)[C@H](OC(C)=O)[C@@H]1C [rifapentine]", "readout_name": "Einf", "result_value": 0.995}
{"molecule": "CC(C)/N=c1\\cc2n(-c3ccc(Cl)cc3)c3ccccc3nc-2cc1Nc1ccc(Cl)cc1 [clofazimine] + CC(=O)NC[C@H]1CN(c2ccc(N3CCOCC3)c(F)c2)C(=O)O1 [linezolid] + NC(=O)c1cnccn1 [pyrazinamide]", "readout_name": "Einf", "result_value": 0.95}
{"molecule": "NNC(=O)c1ccncc1 [isoniazid] + CC(=O)NC[C@H]1CN(c2ccc(N3CCOCC3)c(F)c2)C(=O)O1 [linezolid] + COc1c(N2C[C@@H]3CCCN[C@@H]3C2)c(F)cc2c(=O)c(C(=O)O)cn(C3CC3)c12 [moxifloxacin]", "readout_name": "Einf", "result_value": 0.956}
{"molecule": "CC(C)/N=c1\\cc2n(-c3ccc(Cl)cc3)c3ccccc3nc-2cc1Nc1ccc(Cl)cc1 [clofazimine] + CC[C@@H](CO)NCCN[C@@H](CC)CO [ethambutol] + NC(=O)c1cnccn1 [pyrazinamide]", "readout_name": "Einf", "result_value": 0.953}
{"molecule": "CC[C@@H](CO)NCCN[C@@H](CC)CO [ethambutol] + COc1c(N2C[C@@H]3CCCN[C@@H]3C2)c(F)cc2c(=O)c(C(=O)O)cn(C3CC3)c12 [moxifloxacin] + CO[C@H]1/C=C/O[C@@]2(C)Oc3c(C)c(O)c4c(O)c(c(/C=N/N5CCN(C6CCCC6)CC5)c(O)c4c3C2=O)NC(=O)/C(C)=C\\C=C\\[C@H](C)[C@H](O)[C@@H](C)[C@@H](O)[C@@H](C)[C@H](OC(C)=O)[C@@H]1C [rifapentine]", "readout_name": "Einf", "result_value": 0.961}
{"molecule": "CC[C@@H](CO)NCCN[C@@H](CC)CO [ethambutol] + NNC(=O)c1ccncc1 [isoniazid] + CO[C@H]1/C=C/O[C@@]2(C)Oc3c(C)c(O)c4c(O)c(c(/C=N/N5CCN(C)CC5)c(O)c4c3C2=O)NC(=O)/C(C)=C\\C=C\\[C@H](C)[C@H](O)[C@@H](C)[C@@H](O)[C@@H](C)[C@H](OC(C)=O)[C@@H]1C [rifampicin]", "readout_name": "Einf", "result_value": 0.972}
{"molecule": "COc1nc2ccc(Br)cc2cc1[C@@H](c1ccccc1)[C@@](O)(CCN(C)C)c1cccc2ccccc12 [bedaquiline] + NNC(=O)c1ccncc1 [isoniazid] + CC(=O)NC[C@H]1CN(c2ccc(N3CCOCC3)c(F)c2)C(=O)O1 [linezolid]", "readout_name": "Einf", "result_value": 0.962}
{"molecule": "CC[C@@H](CO)NCCN[C@@H](CC)CO [ethambutol] + O=[N+]([O-])c1cn2c(n1)OC[C@@H](OCc1ccc(OC(F)(F)F)cc1)C2 [pretomanid] + CO[C@H]1/C=C/O[C@@]2(C)Oc3c(C)c(O)c4c(O)c(c(/C=N/N5CCN(C)CC5)c(O)c4c3C2=O)NC(=O)/C(C)=C\\C=C\\[C@H](C)[C@H](O)[C@@H](C)[C@@H](O)[C@@H](C)[C@H](OC(C)=O)[C@@H]1C [rifampicin]", "readout_name": "Einf", "result_value": 0.968}
{"molecule": "COc1nc2ccc(Br)cc2cc1[C@@H](c1ccccc1)[C@@](O)(CCN(C)C)c1cccc2ccccc12 [bedaquiline] + CC[C@@H](CO)NCCN[C@@H](CC)CO [ethambutol] + NC(=O)c1cnccn1 [pyrazinamide]", "readout_name": "Einf", "result_value": 0.98}
{"molecule": "COc1c(N2C[C@@H]3CCCN[C@@H]3C2)c(F)cc2c(=O)c(C(=O)O)cn(C3CC3)c12 [moxifloxacin] + O=[N+]([O-])c1cn2c(n1)OC[C@@H](OCc1ccc(OC(F)(F)F)cc1)C2 [pretomanid] + NC(=O)c1cnccn1 [pyrazinamide]", "readout_name": "Einf", "result_value": 0.967}

###

Listed here are compounds together with their documented FIC90.
tested on: Mycobacterium tuberculosis Erdman (autoluminescent); experiment: FIC90 (Loewe) at 90% inhibition (log2); higher = more antagonistic; conditions: in vitro model: butyrate; time point: constant (~7 days, model-specific)

{"compound": "CC(C)/N=c1\\cc2n(-c3ccc(Cl)cc3)c3ccccc3nc-2cc1Nc1ccc(Cl)cc1 [clofazimine] + CC(=O)NC[C@H]1CN(c2ccc(N3CCOCC3)c(F)c2)C(=O)O1 [linezolid]", "target": "Mycobacterium tuberculosis Erdman (autoluminescent)", "FIC90": 0.875}
{"compound": "COc1nc2ccc(Br)cc2cc1[C@@H](c1ccccc1)[C@@](O)(CCN(C)C)c1cccc2ccccc12 [bedaquiline] + COc1c(N2C[C@@H]3CCCN[C@@H]3C2)c(F)cc2c(=O)c(C(=O)O)cn(C3CC3)c12 [moxifloxacin]", "target": "Mycobacterium tuberculosis Erdman (autoluminescent)", "FIC90": 0.849}
{"compound": "COc1nc2ccc(Br)cc2cc1[C@@H](c1ccccc1)[C@@](O)(CCN(C)C)c1cccc2ccccc12 [bedaquiline] + CO[C@H]1/C=C/O[C@@]2(C)Oc3c(C)c(O)c4c(O)c(c(/C=N/N5CCN(C6CCCC6)CC5)c(O)c4c3C2=O)NC(=O)/C(C)=C\\C=C\\[C@H](C)[C@H](O)[C@@H](C)[C@@H](O)[C@@H](C)[C@H](OC(C)=O)[C@@H]1C [rifapentine]", "target": "Mycobacterium tuberculosis Erdman (autoluminescent)", "FIC90": 0.365}

Data origin: the supplement of paper PMC8617591
